Entry source: PubChem BioAssay AID1688

EXPERIMENT SUMMARY: qHTS Multiplex Assay to Identify Dual Action Probes in a Cell Model of Huntington: Aggregate Formation (GFP); note: nearly all actives have a fitted effect of over 60% in size
EXPERIMENTAL CONTEXT: PC12 HttQ103-GFP aggregates, Acumen cytometry, 40 h; series mostly up to 9.22 µM
Hit rate of the full screen: of about 220,000 compounds, about 2,400 (1.1%) were called active. About 7% were inconclusive and are not listed. Calls come from the whole dose curve; as a rule, active = well fitted inhibition curve with a large enough effect; inconclusive = small, poorly fitted or top-dose-only effect, or effect the other way; inactive = no such curve, though single readings can be large or run the other way. Only a selection was taken, and actives are over-represented in it overall.
Tick one outcome: YES for active, NO for inactive

Answered cases to consult:
Nc1ccc(C(=O)OCC(=O)NC2CCS(=O)(=O)C2)cc1[N+](=O)[O-] (stereo unspecified) : NO
Cc1cc(Cl)ccc1NNC(=O)c1snnc1C : NO

Lab log entry: NC(=O)[C@H]1CC2(CC(c3cccc(NC(=O)[C@H]4CCC(=O)N4)c3)=NO2)CN1C(=O)c1ccccc1C(=O)c1ccccc1 (stereo partly specified) — outcome as called in the assay? NO

Lab log entry: `Cc1nc2ccccc2c(C)c1C(=O)c1ccc(F)cc1` — outcome as called in the assay? YES

Lab log entry: `N#Cc1c(NC(=O)c2ccc(N3CCOCC3)c([N+](=O)[O-])c2)sc2c1CCCC2` — outcome as called in the assay? YES

----------
EXPERIMENT SUMMARY: qHTS Multiplex Assay to Identify Dual Action Probes in a Cell Model of Huntington: Aggregate Formation (GFP); note: nearly all actives have a fitted effect of over 60% in size; note: potency is the fitted concentration of half-maximal effect
EXPERIMENTAL CONTEXT: PC12 HttQ103-GFP aggregates, Acumen cytometry, 40 h; series mostly up to 9.22 µM
Screen size: about 220,000 compounds; about 2,400 (1.1%) were called active. Roughly 7% stayed inconclusive and do not appear here. The full list was thinned out, with actives kept by preference.
PARAMETER: Potency

// worked examples, Potency included
O=C(CCCN1C(=O)/C(=C/c2ccco2)SC1=S)Nc1ccccc1 : 25.1 µM (active)
CCCCNc1nc2c(c(=O)n(C)c(=O)n2C)n1Cc1cccc(OC)c1 : 7.08 µM (active)
Oc1ccc(Br)cc1C=Nc1ccc2[nH]ncc2c1 : inactive
CC(=O)NC(=O)c1ccccc1O : inactive
O=C(CCCN1C(=O)/C(=C\c2ccccc2)SC1=S)Nc1ccccc1O : inactive
O=C1C2C3C=CC(C4CC34)C2C(=O)N1/N=C/c1ccc(-c2ccccc2[N+](=O)[O-])o1 (centres undefined) : 25.1 µM (active)

Each of the following entries comes with a recorded value; kindly state Potency for each.
1. Cc1cccc(Cn2c(N3CCN(c4ccccc4)CC3)nc3c2c(=O)n(C)c(=O)n3C)c1
2. O=C(NNS(=O)(=O)c1ccccc1)c1cnn(-c2ccc(Cl)cc2)c1C(F)(F)F
3. CCOC(=O)c1ccc(N=C2SC(C(=O)NC)CC(=O)N2CCc2ccccc2)cc1 (centres undefined)
4. O=C(c1ccco1)N1CCN(CCOc2ccccc2)CC1
5. COC(=O)C(C)Sc1nc2c(c(=O)n(C)c(=O)n2C)n1Cc1cccc(C)c1 (centres undefined)

inactive
inactive
inactive
inactive
28.2 µM (active)

Each of the following entries comes with a recorded value; kindly state Potency for each.
1. CN(C)c1ccnc2sc3c(=O)n(Cc4ccccc4)cnc3c12
2. Cc1cccc(Cn2c(SCCO)nc3c2c(=O)n(C)c(=O)n3C)c1
3. O=C(c1c(Cl)cccc1Cl)N1CCN(c2cccc3[nH]ccc23)CC1
4. CN(C)c1ccc(/C=N/N(Cc2ccccc2)c2ccccc2)cc1
5. Cc1ccc(C(=O)NNc2ncnc3ccccc23)cc1

1. 7.08 µM (active)
2. inactive
3. inactive
4. inactive
5. inactive

Each of the following entries comes with a recorded value; kindly state Potency for each.
1. CCc1ccc2nc(Nc3ncc(C(C)=O)c(C)n3)nc(C)c2c1
2. c1ccc(-c2nnc(N3CCOCC3)c3ccccc23)cc1
3. COc1ccc(CC(=O)NCC(=O)N/N=C/c2cc(Br)ccc2OC)cc1
4. CN(C)c1cc[n+](Cc2ccccc2)cc1

1. inactive
2. inactive
3. inactive
4. 7.08 µM (active)

Each of the following entries comes with a recorded value; kindly state Potency for each.
1. CC(C)(C)C(=O)NNC(=O)c1ccc(Oc2cc(Cl)cc(Cl)c2)o1
2. Clc1ncn(CCOc2ccccc2)c1Cl
3. O=C(CCCO)N/N=C/c1cc(Br)ccc1O

1. inactive
2. inactive
3. 7.94 µM (active)

Given the compound `O=C(C[n+]1cc(-c2ccc(Cl)c(Cl)c2)n2c1CCC2)c1cccs1` , what is its reported Potency? inactive

----------
EXPERIMENT SUMMARY: qHTS Multiplex Assay to Identify Dual Action Probes in a Cell Model of Huntington: Aggregate Formation (GFP); note: nearly all actives have a fitted effect of over 60% in size
EXPERIMENTAL CONTEXT: PC12 HttQ103-GFP aggregates, Acumen cytometry, 40 h; series mostly up to 9.22 µM
Screen size: about 220,000 compounds; about 2,400 (1.1%) were called active. Not shown: some 7% with an inconclusive outcome. Calls follow the shape of the dose curve; as a rule, active = well fitted inhibition curve with a large enough effect; inconclusive = small, poorly fitted or top-dose-only effect, or effect the other way; inactive = no such curve, though single readings can be large or run the other way. Many of the other results were omitted from the sample, so actives are more common in it than they were.
Tick one outcome: active, inactive

N#Cc1ccc(C(=O)Nc2nc(-c3cccs3)c(C(=O)C(F)(F)F)s2)cc1 : active

Lab log entry: `COC(=O)c1ccc(Cc2ccccc2)o1` — outcome as called in the assay? active

Lab log entry: `CCCc1nc2oc3c(=O)[nH]cnc3c2c2c1COC(C)(C)C2` — outcome as called in the assay? inactive

Lab log entry: `Cc1ccc(C(=O)Nc2nnc(-c3cccs3)s2)cc1C` — outcome as called in the assay? inactive

Lab log entry: `CC(=O)c1sc(NC(=O)c2ccc(C)cc2)nc1C` — outcome as called in the assay? inactive

Lab log entry: `COC(=O)c1ccc(CSc2ccccc2C)o1` — outcome as called in the assay? inactive

----------
EXPERIMENT SUMMARY: qHTS Multiplex Assay to Identify Dual Action Probes in a Cell Model of Huntington: Aggregate Formation (GFP); note: nearly all actives have a fitted effect of over 60% in size
EXPERIMENTAL CONTEXT: PC12 HttQ103-GFP aggregates, Acumen cytometry, 40 h; series mostly up to 9.22 µM
The campaign covered roughly 220,000 compounds. About 2,400 (1.1%) were called active. Not shown: some 7% with an inconclusive outcome. Calls follow the shape of the dose curve; as a rule, active = well fitted inhibition curve with a large enough effect; inconclusive = small, poorly fitted or top-dose-only effect, or effect the other way; inactive = no such curve, though single readings can be large or run the other way. Only a selection was taken, and actives are over-represented in it overall.
Tick one outcome: active, inactive

Cc1ccc(NC(=O)C/C(N)=N/O)cc1Cl : inactive
COc1ccc(S(=O)(=O)N(CC(=O)N/N=C/c2ccccc2C(=O)O)c2ccccc2OC)cc1 : inactive
C/C(=N\NC(=O)CNC(=O)C(c1ccccc1)c1ccccc1)c1ccc(C)cc1 : active
COC(=O)c1cccc(NS(C)(=O)=O)c1 : inactive
COc1ccc(Cc2nnc(N/N=C/c3ccccc3O)[nH]c2=O)cc1OC : active
O=C(O)CC1=C(Nc2ccccc2)C(=O)N(c2ccccc2)C1c1ccc(Cl)cc1 (centres undefined) : inactive
Clc1cccc(-c2nc(NCC3CCCO3)c3ccccc3n2)c1 (centres undefined) : inactive
Cn1nc(C(F)(F)F)c(C(=O)Nc2cccc(C(F)(F)F)c2)c1SCc1ccc(Cl)cc1 : active

Lab log entry: `Cn1c(=O)c2c(nc(NCc3ccccc3)n2CC(N)=O)n(C)c1=O` — outcome as called in the assay? inactive

Lab log entry: `Cn1c(SCC(=O)N2CCCc3ccccc32)nc2ccccc2c1=O` — outcome as called in the assay? active

Lab log entry: CCOC(=O)C(NC(C)=O)C(=O)Nc1ccc(OC)cc1 (centres undefined) — outcome as called in the assay? inactive

Lab log entry: O=c1c2ccccc2nc2n1C(CSc1ccc(Cl)cc1)CN2 (centres undefined) — outcome as called in the assay? inactive

Lab log entry: `Cc1ccc(CSc2nnc(-c3cnccn3)n2C)cc1` — outcome as called in the assay? inactive

Lab log entry: `O=C(CNC(=O)C(c1ccccc1)c1ccccc1)N/N=C\c1ccc2c(c1)OCO2` — outcome as called in the assay? inactive

----------
EXPERIMENT SUMMARY: qHTS Multiplex Assay to Identify Dual Action Probes in a Cell Model of Huntington: Aggregate Formation (GFP); note: nearly all actives have a fitted effect of over 60% in size; note: potency is the fitted concentration of half-maximal effect
EXPERIMENTAL CONTEXT: PC12 HttQ103-GFP aggregates, Acumen cytometry, 40 h; series mostly up to 9.22 µM
Screen size: about 220,000 compounds; about 2,400 (1.1%) were called active. About 7% were inconclusive and are not listed. For the sample, actives were picked, then their nearest neighbours and some compounds at random.
PARAMETER: Potency

Cc1ccccc1NCC(=O)N/N=C\c1ccc([N+](=O)[O-])s1 : 11.2 µM (active)
O=C(Nc1ccncc1)c1c(F)cccc1F : 12.6 µM (active)
COc1cc(OC)nc(S(C)(=O)=O)n1 : inactive
O=C(Nc1cn(-c2ccccc2)nc1-c1ccccc1)c1ccccc1 : inactive
CC(C)=NN1C(=O)c2ccccc2NC1(C)C : inactive

Each of the following entries comes with a recorded value; kindly state Potency for each.
1. COc1ccc(Cl)cc1CSc1ncn[nH]1
2. O=c1[nH]c(N2CCN(Cc3ccc4c(c3)OCO4)CC2)nc2c1CCCC2

["inactive", "inactive"]
